- runDescription: NCI Yeast Anticancer Drug Screen. Data for the cln2 rad14 strain (AID 165);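 note: 0% = growth equal to vehicle treated cultures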
- reportedConditions: S. cerevisiae cln2 rad14 strain, at 50.0 µM, active compounds read high
This is part of a sample that, as a whole, favours compounds with a hit. Of some 79,000 tested, about 15% had one in any assay.
Each entry below lists one item and its recorded growth inhibition value.
assayEndpoint: growth inhibition (%)

[[record]]
compound = "COC(=O)/C=C1/Nc2c(N)nc(N)nc2NC1=O"
assayendpoint = "growth inhibition"
experimentalvalue = -2.1

[[record]]
compound = "CC(=O)OC1CC2CCC1(c1ccccc1)C2 (stereo unspecified)"
assayendpoint = "growth inhibition"
experimentalvalue = 14.4

[[record]]
compound = "CCCCCCCCCCO"
assayendpoint = "growth inhibition"
experimentalvalue = 5.45

[[record]]
compound = "CC(=O)Oc1cc(C(C)C)c(OCCN(C)C)cc1C"
assayendpoint = "growth inhibition"
experimentalvalue = -3.6

[[record]]
compound = "O=C([O-])c1ccc2c(c1)-c1nc-2nc2[n-]c(nc3nc(nc4[n-]c(n1)c1ccc(C(=O)[O-])cc41)-c1ccc(C(=O)[O-])cc1-3)c1ccc(C(=O)[O-])cc21.[Gd+3].[K+]"
assayendpoint = "growth inhibition"
experimentalvalue = 23.6

[[record]]
compound = "N#Cc1nc(-c2ccccc2C(=O)O)oc1N"
assayendpoint = "growth inhibition"
experimentalvalue = 5.7

[[record]]
compound = "COc1cc(/C=C2/C(=O)N(C(=O)c3ccc(Cl)cc3)N=C2C)cc(OC)c1OC"
assayendpoint = "growth inhibition"
experimentalvalue = -48.1

[[record]]
compound = "COc1ccc(-c2cc(-c3ccccc3)n(C3OC(COC(C)=O)C(OC(C)=O)C(OC(C)=O)C3OC(C)=O)c(=S)c2C#N)cc1 (stereo unspecified)"
assayendpoint = "growth inhibition"
experimentalvalue = -25.4

[[record]]
compound = "O=NN(CCCl)C(=O)NC1CCC(CC(=O)O)CC1 (stereo unspecified)"
assayendpoint = "growth inhibition"
experimentalvalue = -8.7

[[record]]
compound = "Cc1cc(S(=O)(=O)NC(=NCC(=O)NN)NN)c(S)cc1Cl"
assayendpoint = "growth inhibition"
experimentalvalue = -6.95

[[record]]
compound = "CN(C)c1ccc(N=Nc2cc3c4ccccc4ccc3c3ccccc23)cc1"
assayendpoint = "growth inhibition"
experimentalvalue = 1.6

